test: Solubility; assay type: physicochemical; settings: ETHANOL(99.5%)
EXPERIMENTAL READOUT: Solubility (%)

>  <COMPOUND>
CCCCC(CC)COc1ccc(C=C2NC(=O)N(CC(CC)CCCC)C2=O)cc1 (stereo not shown)

>  <EXPERIMENTAL RESULT>
1.4

$$$$

[1] CCCCC(CC)CN1C(=O)NC(=Cc2ccc(OC)cc2)C1=O (stereo not shown)
[2] CCCCCCCCN1C(=O)NC(=Cc2ccc(OC)cc2)C1=O [COM. 1, reference compound]
Input line: Two entries are listed, 1 and 2 . Which one carries the higher Solubility? Choose, then provide that item's label.
Output line: 1
(1: 1.2%, 2: 0.65%)

The measured values listed here are drawn from patent EP0632029A1.
